For each record, write down the corresponding Production rate of Alvocidib.
Test: Evaluation of conversion rate to active form in buffer solution (Experimental Example 1)
Format: physicochemical
Conditions: pH7.0, 2 hr, 37° C., 25 umol/L in buffer solution
Provide only the numeric value, understood in %.

Request: // lookup Production rate of Alvocidib for CCNC(=O)Oc1cc(O)c2c(=O)cc(-c3ccccc3Cl)oc2c1[C@H]1CCN(C)C[C@H]1O [Comparative Example 1, reference compound]
Result: 98.8

Request: // lookup Production rate of Alvocidib for CCCN(C[C@@H]1CCCCN1)C(=O)Oc1cc(O)c2c(=O)cc(-c3ccccc3Cl)oc2c1[C@H]1CCN(C)C[C@H]1O [Example 5]
Result: 66.7

Request: // lookup Production rate of Alvocidib for CN1CC[C@H](c2c(OC(=O)N(C)C[C@@H]3CCCCN3)cc(O)c3c(=O)cc(-c4ccccc4Cl)oc23)[C@H](O)C1 [Example 3]
Result: 65.2

Request: // lookup Production rate of Alvocidib for CN1CC[C@H](c2c(OC(=O)N(CCC(F)(F)F)CC3CCCCN3)cc(O)c3c(=O)cc(-c4ccccc4Cl)oc23)[C@H](O)C1 (stereo partly shown) [Example 13]
Result: 65.1

Request: // lookup Production rate of Alvocidib for CN1CC[C@H](c2c(OC(=O)N(CCCC(F)(F)F)CC3CCCCN3)cc(O)c3c(=O)cc(-c4ccccc4Cl)oc23)[C@H](O)C1 (stereo partly shown) [Example 14]
Result: 75.5

Request: // lookup Production rate of Alvocidib for CCN(CCC1CCCCN1)C(=O)Oc1cc(O)c2c(=O)cc(-c3ccccc3Cl)oc2c1[C@H]1CCN(C)C[C@H]1O (stereo partly shown) [Example 16]
Result: 68.6

Request: // lookup Production rate of Alvocidib for CCN(C[C@@H]1CCCCN1)C(=O)Oc1cc(O)c2c(=O)cc(-c3ccccc3Cl)oc2c1[C@H]1CCN(C)C[C@H]1O [Example 1, ditrifluoroacetate]
Result: 65.3

Request: // lookup Production rate of Alvocidib for CCN(C[C@H]1CCCCN1)C(=O)Oc1cc(O)c2c(=O)cc(-c3ccccc3Cl)oc2c1[C@H]1CCN(C)C[C@H]1O [Example 2]
Result: 53.4

Request: // lookup Production rate of Alvocidib for CCCN(C[C@H]1CCCCN1)C(=O)Oc1cc(O)c2c(=O)cc(-c3ccccc3Cl)oc2c1[C@H]1CCN(C)C[C@H]1O [Example 6]
Result: 62.8

Request: // lookup Production rate of Alvocidib for CC(C)N(CC1CCCCN1)C(=O)Oc1cc(O)c2c(=O)cc(-c3ccccc3Cl)oc2c1[C@H]1CCN(C)C[C@H]1O (stereo partly shown) [Example 10]
Result: 63.6

Values were extracted from patent US12617779B2.
